viability at 72 h, 0.390625 uM reference
- protocol_text: Cytotoxicity assay (CellTiter-Glo, 72 h), MESO-1
- Format: cell-based
- conditions: human, MESO-1 malignant pleural mesothelioma cells, conc 0.390625 uM; raw replicate data; read-out: MESO1 viability (%)
Provide the reading as a plain figure in %.

Example cases with answers are listed next.
| compound | unit_info | viability at 72 h, 0.390625 uM |
| --- | --- | --- |
| CO[C@H]1C[C@@H]2CC[C@@H](C)[C@@](O)(O2)C(=O)C(=O)N2CCCC[C@H]2C(=O)O[C@H]([C@H](C)C[C@@H]2CC[C@@H](O)[C@H](OC)C2)CC(=O)[C@H](C)/C=C(\C)[C@@H](O)CC(=O)[C@H](C)C[C@H](C)/C=C/C=C(C)/C=C/1C | % | 109 |
| COC1CC2CCC(C)C(O)(O2)C(=O)C(=O)N2CCCCC2C(=O)OC(C(C)CC2CCC(O)C(OC)C2)CC(=O)C(C)C=C(C)C(O)CC(=O)C(C)C=C(C)C=CC=CC=C1C (stereo not drawn) | % | 93.7 |
| COC1CC2CCC(C)C(O)(O2)C(=O)C(=O)N2CCCCC2C(=O)OC(C(C)CC2CCC(O)C(OC)C2)CC(O)CC(=O)C(C)C=C(C)C(O)CC(=O)C(C)CC(C)C=CC=CC=C1C (stereo not drawn) | % | 77.6 |
| COC1CC2CCC(C)C(O)(O2)C(=O)C(=O)N2CCCCC2C(=O)OC(C(C)CC2CCC(O)C(OC)C2)CCC(C)C=C(C)C(O)C(OC)C(=O)C(C)CC(C)C=CC=CC=C1C (stereo not drawn) | % | 78.4 |

Data request: I would be grateful if you could share the reported viability at 72 h, 0.390625 uM for COC1CC2CCC(C)C(O)(O2)C(=O)C(=O)N2CCCCC2C(=O)OC(C(C)CC2CCC(O)C(OC)C2)CC(=O)C(C)C=C(C)C(O)C(OC)C(=O)C(C)CC(C)C=CCCC=C1C (stereo not drawn) .
Data returned: 78.2

Data request: // same read-out, input: CO[C@@H]1C[C@H](C[C@@H](C)[C@@H]2CC(=O)[C@H](C)/C=C(\C)[C@@H](O)[C@@H](OC)C(=O)[C@H](C)C[C@H](C)/C=C/C=C/C=C(\C)[C@H](O)C[C@@H]3CC[C@@H](C)[C@@](O)(O3)C(=O)C(=O)N3CCCC[C@H]3C(=O)O2)CC[C@H]1O [Compound 17, (16R)-16-O-demethyl rapamycin]
Data returned: 79.6

Data request: // same read-out, input: CO[C@H]1C[C@@H]2CC[C@@H](C)[C@@](O)(O2)C(=O)C(=O)N2CCCC[C@H]2C(=O)O[C@H]([C@H](C)C[C@@H]2CC[C@@H](O)[C@H](OC)C2)CC(=O)[C@H](C)/C=C(\C)[C@@H](O)[C@@H](OC)C(=O)[C@H](C)C[C@H](C)/C=C/C=C/C=C/1C [Compound 1, rapamycin, reference compound]
Data returned: 75.6

Data request: // same read-out, input: CO[C@@H]1/C=C/C=C/[C@@H](C)C[C@@H](C)C(=O)C[C@H](O)/C(C)=C/[C@@H](C)C(=O)C[C@@H]([C@H](C)C[C@@H]2CC[C@@H](O)[C@H](OC)C2)OC(=O)[C@@H]2CCCCN2C(=O)C(=O)[C@]2(O)O[C@@H](CC[C@H]2C)C1
Data returned: 75.8

Data request: // same read-out, input: CO[C@H]1C[C@@H]2CC[C@@H](C)[C@@](O)(O2)C(=O)C(=O)N2CCCC[C@H]2C(=O)O[C@H]([C@H](C)C[C@@H]2CC[C@@H](O)[C@H](OC)C2)CC(=O)[C@H](C)/C=C(\C)[C@@H](O)CC[C@H](C)/C=C/C=C/C=C/1C
Data returned: 71.6
